Molecular target: T1, human vascular endothelial growth factor receptor-2 Fc chimera (KDR-Fc) (human, UniProt P35968 20-764)
T1 construct: range 1-764; also called human VEGFR-2; not shown: human IgG1 Fc
T1 sequence (P35968 20-764 limits assumed, change not shown, form in doubt): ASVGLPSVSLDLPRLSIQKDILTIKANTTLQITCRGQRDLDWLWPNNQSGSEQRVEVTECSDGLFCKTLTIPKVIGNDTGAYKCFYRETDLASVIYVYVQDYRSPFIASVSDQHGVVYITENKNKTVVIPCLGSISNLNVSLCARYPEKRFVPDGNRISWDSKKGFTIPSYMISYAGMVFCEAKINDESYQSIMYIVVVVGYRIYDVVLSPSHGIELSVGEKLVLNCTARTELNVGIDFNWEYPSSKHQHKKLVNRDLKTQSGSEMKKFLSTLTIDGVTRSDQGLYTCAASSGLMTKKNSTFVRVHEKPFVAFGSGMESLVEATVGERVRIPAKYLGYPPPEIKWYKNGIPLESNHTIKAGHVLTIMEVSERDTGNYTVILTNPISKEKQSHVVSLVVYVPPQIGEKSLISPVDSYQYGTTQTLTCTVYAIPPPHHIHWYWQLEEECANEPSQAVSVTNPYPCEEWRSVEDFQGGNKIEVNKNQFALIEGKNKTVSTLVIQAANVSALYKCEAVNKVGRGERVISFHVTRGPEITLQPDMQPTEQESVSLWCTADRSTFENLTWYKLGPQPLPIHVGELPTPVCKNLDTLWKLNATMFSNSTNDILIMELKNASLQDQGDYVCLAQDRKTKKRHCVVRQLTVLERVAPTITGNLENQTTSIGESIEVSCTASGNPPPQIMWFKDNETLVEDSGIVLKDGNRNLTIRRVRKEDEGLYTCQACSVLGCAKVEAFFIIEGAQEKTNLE
Test: radioactive equilibrium binding assay, 1 nM KDR-Fc, % of input bound
Classification field: class 1 = Binding to 1 nM KDR, % at or over 40%; class 0 = Binding to 1 nM KDR, % under 40%.

The examples below pair each entry with its known result.
- binder: "E14 (designed binder, 10Fn3 clone, Del 1-8) EVVAATPTSLLISWRHPHFPTRYYRITYGETGGNSPVQEFTVPLQPPTATISGLKPGVDYTITGYAVTLERNGQVLFTPISINYRT"
  assigned category: "class 0"
- binder: "B12 (designed binder, 10Fn3 clone, Del 1-8) EVVAATPTSLLISWRHPHFPTRYYRITYGETGGNSPVQEFTVPLQPPTATISGLKPGVDYTITGYAVTVERNGRELRTPISINYRT"
  assigned category: "class 0"
- binder: "E24 (designed binder, 10Fn3 clone, Del 1-8) EVVAATPTSLLISWRHPHFPTRYYRITYGETGGNSPVQEFTVPLQPPTATISGLKPGVDYTITGYAVTVERNDRVLFTPISINYRT"
  assigned category: "class 0"
- binder: "EGE7 (designed binder, 10Fn3 clone, Del 1-8) EVVAATPTSLLISWRHPHFPTRYYRITYGETGGNSPVQEFTVPLQPPTATISGLKPGVDYTITGYAVTLERNDRVLLTPISINYRT"
  assigned category: "class 0"

Exercise: Is Binding to 1 nM KDR, % for E6 (designed binder, 10Fn3 clone, Del 1-8) EVVAATPTSLLISWRHPHFPTRYYRITYGETGGNSPVQEFTVPLQPPTATISGLKPGVDYTITGYAVTDGWNGRLLSIPISINYRT at or above 40%?
Key: class 0

Exercise: Could you verify whether the entry E27 (designed binder, 10Fn3 clone, Del 1-8) EVVAATPTSLLISWRHPHFPTRYYRITYGETGGNSPVQEFTVPLQPPTATISGLKPGVDYTITGYAVTVERNGHTLMTPISINYRT shows Binding to 1 nM KDR, % of no less than 40%?
Key: class 0

Exercise: Kindly determine if Binding to 1 nM KDR, % recorded for D6 (designed binder, 10Fn3 clone, Del 1-8) EVVAATPTSLLISWRHPHFPTRYYRITYGETGGNSPVQEFTVPLQPPTATISGLKPGVDYTITGYAVTVERNGKTLMTPISINYRT is above or exactly 40%.
Key: class 0

Exercise: Reported Binding to 1 nM KDR, % reaches at least 40% for C12 (designed binder, 10Fn3 clone, Del 1-8) EVVAATPTSLLISWRHPHFPTRYYRITYGETGGNSPVQEFTVPLQPPTATISGLKPGVDYTITGYAVTVERNGRVLSVPISINYRT ?
Key: class 0

Exercise: Check this binder for Binding to 1 nM KDR, % at or above 40%: D2 (designed binder, 10Fn3 clone, Del 1-8) EVVAATPTSLLISWRHPHFPTRYYRITYGETGGNSPVQEFTVPLQPPTATISGLKPGVDYTITGYAVTVERNGRNLMTPISINYRT
Key: class 0

Exercise: Check if Binding to 1 nM KDR, % >= 40% (inclusive). Item: EGE11 (SEQ ID NO 72) (designed binder) EVVAATPTSLLISWRHPHFPTRYYRITYGETGGNSPVQEFTVPLQPPTATISGLKPGVDYTITGYAVTFGWNDRELLIPISINYRT
Key: class 1

Exercise: Assess whether reported Binding to 1 nM KDR, % for E8 (designed binder, 10Fn3 clone, Del 1-8) EVVAATPTSLLISWRHPHFPTRYYRITYGETGGNSPVQEFTVPLQPPTATISGLKPGVDYTITGYAVTEEWNGRVLMTPISINYRT sits at 40% or higher.
Key: class 1

Exercise: Could you tell me if the measured Binding to 1 nM KDR, % of E12 (designed binder, 10Fn3 clone, Del 1-8) EVVAATPTSLLISWRHPHFPTRYYRITYGETGGNSPVQEFTVPLQPPTATISGLKPGVDYTITGYAVTFARDGHEILTPISINYRT reaches 40% or more?
Key: class 0

Exercise: Is the recorded value of Binding to 1 nM KDR, % equal to or greater than 40% for this binder? EGE8 (designed binder, 10Fn3 clone, Del 1-8) EVVAATPTSLLISWRHPHFPTRYYRITYGETGGNSPVQEFTVPLQPPTATISGLKPGVDYTITGYAVTVERNERVLMTPISINYRT
Key: class 0

Exercise: Can EGE4 (designed binder, 10Fn3 clone, Del 1-8) EVVAATPTSLLISWRHPHFPTRYYRITYGETGGNSPVQEFTVPLQPPTATISGLKPGVDYTITGYAVTVERNGRVLNTPISINYRT be said to have Binding to 1 nM KDR, % at or above 40%?
Key: class 0

Exercise: Is Binding to 1 nM KDR, % for A4 (designed binder, 10Fn3 clone, Del 1-8) EVVAATPTSLLISWRHPHFPTRYYRITYGETGGNSPVQEFTVPLQPPTATISGLKPGVDYTITGYAVTDGYNDRLLFIPISINYRT at or above 40%?
Key: class 1

Exercise: In plain terms: is recorded Binding to 1 nM KDR, % at least 40% for E17 (designed binder, 10Fn3 clone, Del 1-8) EVVAATPTSLLISWRHPHFPTRYYRITYGETGGNSPVQEFTVPLQPPTATISGLKPGVDYTITGYAVTVEENGRVLNTPISINYRT ?
Key: class 0

Exercise: Determine whether measured Binding to 1 nM KDR, % meets or exceeds 40% for C9 (designed binder, 10Fn3 clone, Del 1-8) EVVAATPTSLLISWRHPHFPTRYYRITYGETGGNSPVQEFTVPLQPPTATISGLKPGVDYTITGYAVTVERNGLVLMTPISINYRT
Key: class 0
